Test system: Human low density lipoprotein (LDL)
experiment-summary: Copper-induced lipid peroxidation of LDL (TBARS formation)
Assay type: biochemical
assay-conditions: LDL 100µg/ml, 37°C, CuSO4 12 hours
pIC50: −log10 of the molar value.

compound: COc1cc2c(cc1OC)-c1c(O)c(OC)cc3c1C(C2)N(C)CC3 (single isomer, unassigned; (+)) [THP, (+)-Thaliporphine]
system-tested: Human low density lipoprotein (LDL)
pIC50: 4.80

---

experiment-summary: Superoxide anion scavenging, xanthine/xanthine oxidase system
Assay type: biochemical
recorded-metric: EC50 (µM)

compound: COc1cc2c(cc1OC)-c1c(O)c(OC)cc3c1C(C2)N(C)CC3 (single isomer, unassigned; (+)) [THP, (+)-Thaliporphine]
units-label: µM
measured-number: 12.6

Cited source: patent EP1311486B1
